Fold decrease in affinity values for the binders below.
Molecular target: T1, human NMI (N-myc Interacting protein), recombinant protein (human, UniProt Q13287 1-307, limits assumed)
T1 construct: Gene ID: 9111; also called hNMI; antigen
T1 sequence (looked up): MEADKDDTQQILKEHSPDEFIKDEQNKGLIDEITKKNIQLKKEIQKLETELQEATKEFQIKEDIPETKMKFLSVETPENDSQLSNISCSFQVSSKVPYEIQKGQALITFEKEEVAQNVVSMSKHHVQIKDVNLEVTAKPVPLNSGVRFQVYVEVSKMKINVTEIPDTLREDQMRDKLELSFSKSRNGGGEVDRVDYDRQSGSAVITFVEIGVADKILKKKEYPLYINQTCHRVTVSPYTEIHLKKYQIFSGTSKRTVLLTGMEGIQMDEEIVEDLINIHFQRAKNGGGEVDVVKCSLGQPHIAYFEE
Assay: ELISA EC50 against parent 240B10-1
experimentalReadout: Fold decrease in affinity

240B10-1 mutant S29E (VH) (antibody, V domains shown) VH: QSLEESGGRLVTPGGSLTLTCTVSGIDLESYTMGWVRQAPGKGLEYIGIISGGGRTYYASWAKGRFTISKTSSTTVDLKVTSLTTEDTATYFCARIYTLWGQGTLVTVSS VL: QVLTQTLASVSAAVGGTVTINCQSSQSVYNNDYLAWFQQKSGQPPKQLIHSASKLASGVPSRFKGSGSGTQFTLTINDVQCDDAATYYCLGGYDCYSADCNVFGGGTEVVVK = > 500 fold
240B10-1 mutant G52K (VH) (antibody, V domains shown) VH: QSLEESGGRLVTPGGSLTLTCTVSGIDLSSYTMGWVRQAPGKGLEYIGIISKGGRTYYASWAKGRFTISKTSSTTVDLKVTSLTTEDTATYFCARIYTLWGQGTLVTVSS VL: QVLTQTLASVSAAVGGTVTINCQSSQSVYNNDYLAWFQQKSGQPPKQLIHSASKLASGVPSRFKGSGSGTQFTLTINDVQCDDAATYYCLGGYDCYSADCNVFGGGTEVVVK = > 500 fold
240B10-1 mutant S30K (VH) (antibody, V domains shown) VH: QSLEESGGRLVTPGGSLTLTCTVSGIDLSKYTMGWVRQAPGKGLEYIGIISGGGRTYYASWAKGRFTISKTSSTTVDLKVTSLTTEDTATYFCARIYTLWGQGTLVTVSS VL: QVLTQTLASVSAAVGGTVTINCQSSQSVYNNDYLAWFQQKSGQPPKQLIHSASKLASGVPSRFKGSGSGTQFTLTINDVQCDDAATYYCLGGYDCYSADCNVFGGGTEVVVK = > 500 fold
